Molecular target: T1, recombinant cynomologus IL-23 (cynomolgus, limits assumed)
T1 construct: also called cynomolgus IL-23; cyno IL23
T1 chain 1: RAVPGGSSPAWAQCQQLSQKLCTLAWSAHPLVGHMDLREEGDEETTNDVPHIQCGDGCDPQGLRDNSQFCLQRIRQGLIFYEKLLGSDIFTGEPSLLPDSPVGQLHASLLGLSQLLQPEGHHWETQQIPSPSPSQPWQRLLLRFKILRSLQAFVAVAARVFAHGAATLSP
T1 chain 2: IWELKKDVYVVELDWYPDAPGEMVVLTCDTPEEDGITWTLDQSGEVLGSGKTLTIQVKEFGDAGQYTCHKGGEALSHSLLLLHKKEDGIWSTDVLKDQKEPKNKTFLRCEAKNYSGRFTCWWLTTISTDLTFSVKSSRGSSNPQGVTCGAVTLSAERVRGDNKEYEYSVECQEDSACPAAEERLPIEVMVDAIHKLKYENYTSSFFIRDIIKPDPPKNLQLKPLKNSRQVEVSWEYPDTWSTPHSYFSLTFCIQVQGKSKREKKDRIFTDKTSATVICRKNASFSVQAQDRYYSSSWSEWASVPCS
Test: IL-23/IL-23R inhibition ELISA (optimised protocol, OD450): plate coated with human IL23R Fc chimera, antibody pre-incubated with constant cynomolgus IL-23, bound IL-23 detected with biotinylated anti-human IL-12; purified antibody
Would you kindly list IC50 (read off the curve) for each of these binders?

Incoming: Value lookup for IC50 (read off the curve); key = A3N2 (antibody, human IgG1, kappa, V domains shown, Full length chains) VH: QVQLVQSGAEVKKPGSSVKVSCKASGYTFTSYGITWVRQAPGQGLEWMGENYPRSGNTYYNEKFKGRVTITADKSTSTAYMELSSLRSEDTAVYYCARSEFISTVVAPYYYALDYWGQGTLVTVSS VL: DIVMTQTPLSLSVTPGQPASISCKASKKVTIFGSISALHWYLQKPGQPPQLIYNGAKLESGVSDRFSDSGSGTDFTLKISRVEAEDVGVYYCLQNKEVPYTFGGGTKVEIKR
Outgoing: ~1 nM

Incoming: Would you mind telling me what IC50 (read off the curve) value was observed for A3M1 (antibody, human IgG1, kappa, V domains shown, Full length chains) VH: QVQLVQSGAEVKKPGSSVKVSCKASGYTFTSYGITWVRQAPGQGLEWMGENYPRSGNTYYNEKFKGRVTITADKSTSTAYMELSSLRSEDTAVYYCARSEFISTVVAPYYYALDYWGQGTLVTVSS VL: DIVMTQSPDSLAVSLGERATINCKASKKVTIFGSISALHWYQQKPGQPPKLIYNGAKLESGVSDRFSDSGSQNRSPFGNQLSFTLTISSLQAEDVAVYYCLQNKEVPYTFGGGTKVEIKR ?
Outgoing: ~0.8 nM

Incoming: Entry chimeric 8C92H6 HC1LC1 (antibody, V domains shown, Murine variable regions with human constant regions; also called 8C92H6.HC1LC1 Chimera; 8C9 chimera) VH: QVQLQQSGAELARPGTSVKLSCKASGYTFTSYGITWVKQRTGQGLEWIGENYPRSGNTYYNEKFKGKATLTADKSSSTAYMELRSLTSEDSAVYFCARCEFISTVVAPYYYALDYWGQGTSLVTVS VL: DIVLTQSPASLAVSLGQKATISCKASKKVTIFGSISALHWYQQKPGQPPKLIYNGAKLESGVSARFSDSGSQNRSPFGNQLSFTLTIDPVEADDAATYYCLQNKEVPYTFGGGTKLEIKR has what IC50 (read off the curve)?
Outgoing: ~2 nM

Incoming: Returns the measured IC50 (read off the curve) for the input binder. Input: A3N1 (antibody, human IgG1, kappa, V domains shown, Full length chains) VH: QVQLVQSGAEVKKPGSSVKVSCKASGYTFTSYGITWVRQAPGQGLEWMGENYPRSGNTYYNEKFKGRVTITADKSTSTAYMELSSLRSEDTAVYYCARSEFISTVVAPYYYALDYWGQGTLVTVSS VL: DIVMTQTPLSLSVTPGQPASISCKASKKVTIFGSISALHWYLQKPGQPPQLIYNGAKLESGVSDRFSDSGSQNRSPFGNQLSFTLKISRVEAEDVGVYYCLQNKEVPYTFGGGTKVEIKR
Outgoing: ~0.9 nM
